As shown below, each of these sequences has a reported protein stability index value.
assay.comment: protein stability index of a GFP-peptide fusion (yeast GPS) (PSI 1-4); higher = more stable; sorted into four equal gates, so the index is relative within each strain
measurement.setup: ubr1∆
assay.metric: protein stability index

[[record]]
sequence_data = "DLNNAVQKRDEVKEQLG [SMC4]"
assay_metric = "protein stability index"
measured_number = 2.83

[[record]]
sequence_data = "KCFDDIEPHIFDQLIEW [YCG1]"
assay_metric = "protein stability index"
measured_number = 3.3

[[record]]
sequence_data = "VKPHDEGSKSHPFGHAL [RPL27A]"
assay_metric = "protein stability index"
measured_number = 3.1

[[record]]
sequence_data = "IVGKSNVLVTMPVAPTM [YMR129W/POM152]"
assay_metric = "protein stability index"
measured_number = 2.65

[[record]]
sequence_data = "TNKISPKDFSPNFTGID [SSN2]"
assay_metric = "protein stability index"
measured_number = 2.91

[[record]]
sequence_data = "QANSNLTLLERKWVIFI [NUT1]"
assay_metric = "protein stability index"
measured_number = 2.19

[[record]]
sequence_data = "DDLPYYVNALADVLYKT [QCR2]"
assay_metric = "protein stability index"
measured_number = 2.63

[[record]]
sequence_data = "ESITKAMEFIFGNSLIC [SMC2]"
assay_metric = "protein stability index"
measured_number = 1.89

[[record]]
sequence_data = "YKRSIVRNYKPLINRLK [SWI1]"
assay_metric = "protein stability index"
measured_number = 1.98

[[record]]
sequence_data = "HNGSHRTVAGFSNVELP [ARP7]"
assay_metric = "protein stability index"
measured_number = 2.8

[[record]]
sequence_data = "QSTNLNRSAKNSKNDSA [YCS4]"
assay_metric = "protein stability index"
measured_number = 2.79

[[record]]
sequence_data = "NDQVEKDAEDETSSDGS [RPN1]"
assay_metric = "protein stability index"
measured_number = 2.59

[[record]]
sequence_data = "EAESQWYIEKVIRIPMQ [CSI1]"
assay_metric = "protein stability index"
measured_number = 2.71

[[record]]
sequence_data = "GSSRIIASDGSECIVSI [RRP42]"
assay_metric = "protein stability index"
measured_number = 3.12

[[record]]
sequence_data = "EDFDVEHFSDEETYEEK [RPO26]"
assay_metric = "protein stability index"
measured_number = 3.45

[[record]]
sequence_data = "CRSCPYEFPIEGIEIYD [RPC11]"
assay_metric = "protein stability index"
measured_number = 2.08

[[record]]
sequence_data = "NNLEPRQTTSNTGLLNK [RPN11]"
assay_metric = "protein stability index"
measured_number = 3.32

[[record]]
sequence_data = "IGIPVNKASLAQYEVLA [QCR2]"
assay_metric = "protein stability index"
measured_number = 2.81

[[record]]
sequence_data = "GFGILEDGMIIDVNLNF [RRP40]"
assay_metric = "protein stability index"
measured_number = 3.02

[[record]]
sequence_data = "EEARRKHVSGKILGFVY [RPS22A]"
assay_metric = "protein stability index"
measured_number = 2.9

[[record]]
sequence_data = "SKLDIYTQQQALEYIGA [RET1]"
assay_metric = "protein stability index"
measured_number = 1.89

[[record]]
sequence_data = "MWSVARAGQRGYHSRTS [RPL3]"
assay_metric = "protein stability index"
measured_number = 3.11

[[record]]
sequence_data = "NAFRKEELLLKDLEIRK [GAL11]"
assay_metric = "protein stability index"
measured_number = 3.03

[[record]]
sequence_data = "DMLEHINLAMNESSLAL [SRB4]"
assay_metric = "protein stability index"
measured_number = 1.52

[[record]]
sequence_data = "QVKKPRKQRVKKKTKKE [SWI1]"
assay_metric = "protein stability index"
measured_number = 3.38

[[record]]
sequence_data = "TIEVLDEVITEGQADID [POP7]"
assay_metric = "protein stability index"
measured_number = 3.07

[[record]]
sequence_data = "HQQRMSRTAADILLRLC [YCG1]"
assay_metric = "protein stability index"
measured_number = 2.66

[[record]]
sequence_data = "DMAKLKKMMNTSDSEST [SWI3]"
assay_metric = "protein stability index"
measured_number = 1.91

[[record]]
sequence_data = "INDKRANLMLVMLRLLL [SRB4]"
assay_metric = "protein stability index"
measured_number = 1.94

[[record]]
sequence_data = "ENEISSLLAMHKHNIMK [CDC53]"
assay_metric = "protein stability index"
measured_number = 3.07

[[record]]
sequence_data = "FLKLYVLVKWTRTIKQN [RGR1]"
assay_metric = "protein stability index"
measured_number = 1.15

